- Tested on: polymodal nociceptors
- Protocol: animal or person
- Format: in vivo, Sprague-Dawley rats
- Applied conditions: Rattus norvegicus, sc; 6 hr; read-out: Systemic desensitization against neurogenic inflammation, inhibition
Measured property: inhibition at 0.3 mg/kg
Could you write the number and then its unit?

- Compound: "C=C(C)[C@]12C[C@@H](C)[C@@]34O[C@](Cc5ccccc5)(O[C@@H]1[C@@H]3C=C(CO)C[C@]1(O)C(=O)C(C)=C[C@@H]41)O2 [ROA, Resiniferonol 9,13,14Orthophenylacetate]"
  Measured property: "inhibition at 0.3 mg/kg"
  Result: "0%"
- Compound: "C=C(C)[C@@]12O[C@@]3(c4ccccc4)O[C@@H]1[C@@H]1[C@@H]4O[C@]4(CO)[C@@H](O)[C@]4(O)C(=O)C(C)=C[C@H]4[C@@]1(O3)[C@H](C)[C@H]2OC(=O)/C=C/C=C/c1ccccc1 [Mez, Mezerein]"
  Measured property: "inhibition at 0.3 mg/kg"
  Result: "0%"
- Compound: "COc1cc(CC(=O)OCC2=C[C@H]3[C@@H]4C(C)(C)[C@]4(OC(=O)Cc4ccccc4)C[C@@H](C)[C@]3(O)[C@@H]3C=C(C)C(=O)[C@@]3(O)C2)ccc1O [dPP-HV]"
  Measured property: "inhibition at 0.3 mg/kg"
  Result: "26%"
- Compound: "CC1=C[C@H]2[C@@]3(O)[C@H](C)C[C@]4(OC(=O)Cc5ccccc5)[C@H]([C@@H]3C=C(CO)C[C@]2(O)C1=O)C4(C)C [dPP, 12-deoxyphorbol 13-phenylacetate]"
  Measured property: "inhibition at 0.3 mg/kg"
  Result: "0%"
- Compound: "C=C(C)[C@@]12O[C@@]3(c4ccccc4)O[C@@H]1[C@@H]1[C@@H]4O[C@]4(COC(=O)Cc4ccc(O)c(OC)c4)[C@@H](O)[C@]4(O)C(=O)C(C)=C[C@H]4[C@@]1(O3)[C@H](C)[C@H]2OC(=O)/C=C/C=C/c1ccccc1 [Mez-HV, Mezerein 20-homovanillate]"
  Measured property: "inhibition at 0.3 mg/kg"
  Result: "0%"

With those in mind, consider the next compound.
stdin: Quick check: inhibition at 0.3 mg/kg of C=C(C)[C@]12C[C@@H](C)[C@@]34O[C@](Cc5ccccc5)(O[C@@H]1[C@@H]3C=C(COC(=O)Cc1ccc(O)c(OC)c1)C[C@]1(O)C(=O)C(C)=C[C@@H]41)O2 [RTX, Resiniferatoxin] ?
stdout: 100%

###

- Target under test: protein kinase C
- Type: binding
- Applied conditions: read-out: KI, binding affinity to protein kinase C
Measured pKi, listed per entry.
The quantity pKi is defined as the negative base-10 logarithm of the molar concentration.

- Compound: "COc1cc(CC(=O)OCC2=C[C@H]3[C@@H]4C(C)(C)[C@]4(OC(=O)Cc4ccccc4)C[C@@H](C)[C@]3(O)[C@@H]3C=C(C)C(=O)[C@@]3(O)C2)ccc1O"
  pKi: 7.09
- Compound: "CC1=C[C@H]2[C@@]3(O)[C@H](C)C[C@]4(OC(=O)Cc5ccccc5)[C@H]([C@@H]3C=C(CO)C[C@]2(O)C1=O)C4(C)C [dPP, 12-deoxyphorbol 13-phenylacetate]"
  pKi: 9.19
- Compound: "C=C(C)[C@@]12O[C@@]3(c4ccccc4)O[C@@H]1[C@@H]1[C@@H]4O[C@]4(COC(=O)Cc4ccc(O)c(OC)c4)[C@@H](O)[C@]4(O)C(=O)C(C)=C[C@H]4[C@@]1(O3)[C@H](C)[C@H]2OC(=O)/C=C/C=C/c1ccccc1 [Mez-HV, Mezerein 20-homovanillate]"
  pKi: 6.40
- Compound: "C=C(C)[C@]12C[C@@H](C)[C@@]34O[C@](Cc5ccccc5)(O[C@@H]1[C@@H]3C=C(CO)C[C@]1(O)C(=O)C(C)=C[C@@H]41)O2 [ROA, Resiniferonol 9,13,14Orthophenylacetate]"
  pKi: 7.44

With those in mind, consider the next compound.
stdin: Quick check: pKi of C=C(C)[C@]12C[C@@H](C)[C@@]34O[C@](Cc5ccccc5)(O[C@@H]1[C@@H]3C=C(COC(=O)Cc1ccc(O)c(OC)c1)C[C@]1(O)C(=O)C(C)=C[C@@H]41)O2 ?
stdout: 6.39

# credit: patent US5021450A
